molecular target: mMC4R (Mus musculus, UniProt P56450)
Sequence (P56450 whole entry): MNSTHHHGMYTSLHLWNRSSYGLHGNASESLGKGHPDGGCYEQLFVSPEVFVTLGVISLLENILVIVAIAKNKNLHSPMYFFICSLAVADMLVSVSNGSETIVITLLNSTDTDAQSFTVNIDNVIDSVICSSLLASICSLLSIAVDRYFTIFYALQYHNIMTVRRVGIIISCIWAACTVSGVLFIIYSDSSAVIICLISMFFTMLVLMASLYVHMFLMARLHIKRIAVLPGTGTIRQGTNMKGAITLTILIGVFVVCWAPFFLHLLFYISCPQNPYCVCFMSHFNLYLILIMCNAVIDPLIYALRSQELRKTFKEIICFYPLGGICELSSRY
Square brackets hold non-standard residues; d marks the D form. Peptide text beside a SMILES is read from it.
Reported Kb is given for each of the following molecules.
A number alone suffices; assume nM.

1) CCCC[C@@H]1NC(=O)[C@H](C)NC(=O)[C@H](CC(N)=O)NC(=O)[C@H](Cc2ccccc2)NC(=O)[C@H](Cc2ccccc2)NC(=O)[C@H](CCCNC(=N)N)NC(=O)[C@@H]2CCCN2C(=O)[C@H]2CCCN2C1=O [Compound 2, c[Pro-Arg-Phe-Phe-Asn-Ala-Nle-DPro]]	1.26
2) C[C@@H]1NC(=O)[C@H](CC(N)=O)NC(=O)[C@H](CCc2ccccc2)NC(=O)[C@H](Cc2ccccc2)NC(=O)[C@H](CCCNC(=N)N)NC(=O)[C@@H]2CCCN2C(=O)[C@H]2CCCN2C(=O)[C@H](Cc2ccccc2)NC1=O [Compound 13, c[Pro-Arg-Phe-hPhe-Asn-Ala-Phe-DPro]]	5.01
3) C[C@@H]1NC(=O)[C@H](CCCNC(=N)N)NC(=O)[C@H](Cc2ccccc2)NC(=O)[C@H](Cc2ccccc2)NC(=O)[C@H](CCCNC(=N)N)NC(=O)[C@@H]2CCCN2C(=O)[C@H]2CCCN2C(=O)[C@H](Cc2ccccc2)NC1=O [Compound 9, c[Pro-Arg-Phe-Phe-Arg-Ala-Phe-DPro]] (cyclo(RFFRAF[dP]P))	2

// below: Kb requested for another molecule
With mMC4R (Mus musculus, UniProt P56450) as the test system, N=C(N)NCCC[C@@H]1NC(=O)[C@@H]2CCCN2C(=O)[C@H]2CCCN2C(=O)[C@H](Cc2ccccc2)NC(=O)[C@H](CO)NC(=O)[C@H](CC(N)=O)NC(=O)[C@H](Cc2ccccc2)NC(=O)[C@H](Cc2ccccc2)NC1=O [Compound 3, c[Pro-Arg-Phe-Phe-Asn-Ser-Phe-DPro]] (cyclo(RFFNSF[dP]P)) showed Kb of 7.94

* * *

Reported EC50 is given for each of the following molecules.
biological target: mMC5R (Mus musculus, UniProt P41149); experiment: AlphaScreen cAMP assay, agonist/inverse agonist activity at mMC5R
Sequence (P41149 whole entry): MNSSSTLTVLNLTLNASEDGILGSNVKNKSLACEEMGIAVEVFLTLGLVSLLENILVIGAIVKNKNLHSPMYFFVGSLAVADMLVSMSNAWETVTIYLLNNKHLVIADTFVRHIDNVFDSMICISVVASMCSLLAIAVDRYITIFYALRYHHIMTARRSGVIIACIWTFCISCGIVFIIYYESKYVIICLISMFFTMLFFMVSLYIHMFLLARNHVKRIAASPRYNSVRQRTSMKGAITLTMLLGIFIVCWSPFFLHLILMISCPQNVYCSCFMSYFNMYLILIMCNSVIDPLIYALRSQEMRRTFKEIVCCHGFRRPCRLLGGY
Square brackets hold non-standard residues; d marks the D form. Peptide text beside a SMILES is read from it.

Examples with their reported EC50 follow.
1) C[C@@H]1NC(=O)[C@H](CC(N)=O)NC(=O)[C@H](CCc2ccccc2)NC(=O)[C@H](Cc2ccccc2)NC(=O)[C@H](CCCNC(=N)N)NC(=O)[C@@H]2CCCN2C(=O)[C@H]2CCCN2C(=O)[C@H](Cc2ccccc2)NC1=O [Compound 13, c[Pro-Arg-Phe-hPhe-Asn-Ala-Phe-DPro]]	> 100 µM
2) C[C@@H]1NC(=O)[C@H](CN)NC(=O)[C@H](Cc2ccccc2)NC(=O)[C@H](Cc2ccccc2)NC(=O)[C@H](CCCNC(=N)N)NC(=O)[C@@H]2CCCN2C(=O)[C@H]2CCCN2C(=O)[C@H](Cc2ccccc2)NC1=O [Compound 5, c[Pro-Arg-Phe-Phe-Dap-Ala-Phe-DPro]]	> 100 µM

// below: EC50 requested for another molecule
Documented EC50 of C[C@@H]1NC(=O)[C@H](CCCNC(=N)N)NC(=O)[C@H](Cc2ccccc2)NC(=O)[C@H](Cc2ccccc2)NC(=O)[C@H](CCCNC(=N)N)NC(=O)[C@@H]2CCCN2C(=O)[C@H]2CCCN2C(=O)[C@H](Cc2ccccc2)NC1=O [Compound 9, c[Pro-Arg-Phe-Phe-Arg-Ala-Phe-DPro]] (cyclo(RFFRAF[dP]P)) : > 100 µM
